Let's look at some compounds and their measured concentration at 48 h.
assay: in vivo; details: both, Gammarus pulex, in vivo, pH 8.19, Concentration, 48h Mean, G. pulex, n=3; exposure 1 μg L^−1 (warfarin, propranolol 10 μg L^−1)
experimental_readout: concentration at 48 h (ng/g)

compound: CN1C(=O)C(O)N=C(c2ccccc2)c2cc(Cl)ccc21 (centres unmarked)
experimental_readout: concentration at 48 h
meas_value: 38
//
compound: NC(=O)N1c2ccccc2C=Cc2ccccc21 [Carbamazepine, carbamazepine]
experimental_readout: concentration at 48 h
meas_value: 14

---

conditions: exposure media, n = 2
Counter-ions that a name gives are not always drawn.
Record condition met whenever Concentration, Day 2 (initial pharmaceutical concentration on day 2) is at 1 ng/mL or higher; record condition not met when lower.

compound: CN1C(=O)C(O)N=C(c2ccccc2)c2cc(Cl)ccc21 (stereo not shown)
assigned_class: condition met

compound: Cc1cc(C)nc(NS(=O)(=O)c2ccc(N)cc2)n1
assigned_class: condition not met

compound: CN1C(=O)CN=C(c2ccccc2)c2cc(Cl)ccc21
assigned_class: condition met

compound: CC(C)NCC(O)COc1cccc2ccccc12 (stereo not shown) [Propranolol, Propranolol hydrochloride]
assigned_class: condition met

compound: COCCc1ccc(OCC(O)CNC(C)C)cc1 (racemic) [Metoprolol, (±)-metoprolol (+)-tartrate salt]
assigned_class: condition not met

compound: NC(=O)N1c2ccccc2C=Cc2ccccc21 [Carbamazepine, carbamazepine]
assigned_class: condition met

---

assay: in vivo; conditions: both, Gammarus pulex, in vivo, pH 8.19, Concentration, 24h Mean, G. pulex, n=3; exposure 1 μg L^−1 (warfarin, propranolol 10 μg L^−1)
The following molecules are shown together with reported concentration at 24 h values.
experimental_readout: concentration at 24 h (ng/g)

molecule: CN1C(=O)CN=C(c2ccccc2)c2cc(Cl)ccc21 [Diazepam, diazepam]
experimental_readout: concentration at 24 h
meas_value: 37

molecule: NC(=O)N1c2ccccc2C=Cc2ccccc21 [Carbamazepine, carbamazepine]
experimental_readout: concentration at 24 h
meas_value: 11

molecule: CN1C(=O)C(O)N=C(c2ccccc2)c2cc(Cl)ccc21 (stereo not drawn) [Temazepam, temazepam]
experimental_readout: concentration at 24 h
meas_value: 32

---

conditions: exposure media, n = 3; nominal 1 μg L^−1 (propranolol 10 μg L^−1)
Where a name gives a salt, the structure may show the parent alone.
experimental_readout: Concentration, Day 1 (initial pharmaceutical concentration on day 1) (ng/mL)

compound: Cc1cc(C)nc(NS(=O)(=O)c2ccc(N)cc2)n1
meas_value: 1.06
//
compound: CN1C(=O)CN=C(c2ccccc2)c2cc(Cl)ccc21
meas_value: 1.02
//
compound: COCCc1ccc(OCC(O)CNC(C)C)cc1 (racemic) [Metoprolol, (±)-metoprolol (+)-tartrate salt]
meas_value: 0.77
//
compound: NC(=O)N1c2ccccc2C=Cc2ccccc21 [Carbamazepine, carbamazepine]
meas_value: 1.12
//
compound: CC(C)NCC(O)COc1cccc2ccccc12 (stereo not shown) [Propranolol, Propranolol hydrochloride]
meas_value: 9.22
//
compound: CN1C(=O)C(O)N=C(c2ccccc2)c2cc(Cl)ccc21 (stereo not shown)
meas_value: 0.96
//
compound: COc1cc(Cc2cnc(N)nc2N)cc(OC)c1OC
meas_value: 1.09

---

settings: exposure media after 24 h of exposure with Day 2 solution, n = 3 (propranolol n = 2)
Where a name gives a salt, the structure may show the parent alone.
Hi, to clarify the labels: fulfilled covers Concentration, 48 h from 0.9 ng/mL upward, not fulfilled covers anything below 0.9 ng/mL.

molecule: COc1cc(Cc2cnc(N)nc2N)cc(OC)c1OC
assigned_class: fulfilled
//
molecule: Cc1cc(C)nc(NS(=O)(=O)c2ccc(N)cc2)n1
assigned_class: not fulfilled
//
molecule: COCCc1ccc(OCC(O)CNC(C)C)cc1 (racemic) [Metoprolol, (±)-metoprolol (+)-tartrate salt]
assigned_class: not fulfilled
//
molecule: NC(=O)N1c2ccccc2C=Cc2ccccc21 [Carbamazepine, carbamazepine]
assigned_class: fulfilled
//
molecule: CN1C(=O)C(O)N=C(c2ccccc2)c2cc(Cl)ccc21 (stereo not drawn)
assigned_class: fulfilled

---

experiment: in vivo; details: both, Gammarus pulex, in vivo, pH 8.19, Concentration, 6h Mean, G. pulex, n=3; exposure 1 μg L^−1 (warfarin, propranolol 10 μg L^−1)

compound: NC(=O)N1c2ccccc2C=Cc2ccccc21 [Carbamazepine, carbamazepine]
concentration at 6 h, ng/g: 8
--
compound: CN1C(=O)CN=C(c2ccccc2)c2cc(Cl)ccc21
concentration at 6 h, ng/g: 31
--
compound: CN1C(=O)C(O)N=C(c2ccccc2)c2cc(Cl)ccc21 (stereo not drawn)
concentration at 6 h, ng/g: 20

---

details: exposure media after 24 h of exposure with Day 1 solution, n = 3
Counter-ions that a name gives are not always drawn.
The molecules listed here are annotated with their Concentration, 24 h.

molecule: COCCc1ccc(OCC(O)CNC(C)C)cc1 (racemic) [Metoprolol, (±)-metoprolol (+)-tartrate salt]
Concentration, 24 h / ng/mL: 0.72

molecule: CN1C(=O)CN=C(c2ccccc2)c2cc(Cl)ccc21
Concentration, 24 h / ng/mL: 0.86

molecule: NC(=O)N1c2ccccc2C=Cc2ccccc21 [Carbamazepine, carbamazepine]
Concentration, 24 h / ng/mL: 1.01

molecule: CC(C)NCC(O)COc1cccc2ccccc12 (stereo not shown) [Propranolol, Propranolol hydrochloride]
Concentration, 24 h / ng/mL: 8.92

molecule: Cc1cc(C)nc(NS(=O)(=O)c2ccc(N)cc2)n1
Concentration, 24 h / ng/mL: 0.99

molecule: CN1C(=O)C(O)N=C(c2ccccc2)c2cc(Cl)ccc21 (stereo not shown)
Concentration, 24 h / ng/mL: 0.85

molecule: COc1cc(Cc2cnc(N)nc2N)cc(OC)c1OC
Concentration, 24 h / ng/mL: 1.01

---

conditions: across the exposure period
Counter-ions that a name gives are not always drawn.
experimental_readout: stability of aqueous pharmaceutical concentration

compound: CN1C(=O)C(O)N=C(c2ccccc2)c2cc(Cl)ccc21 (stereo not shown)
meas_value: remained stable
--
compound: Cc1cc(C)nc(NS(=O)(=O)c2ccc(N)cc2)n1
meas_value: remained stable
--
compound: NC(=O)N1c2ccccc2C=Cc2ccccc21 [Carbamazepine, carbamazepine]
meas_value: remained stable
--
compound: COCCc1ccc(OCC(O)CNC(C)C)cc1 (racemic) [Metoprolol, (±)-metoprolol (+)-tartrate salt]
meas_value: remained stable
